Source of measurements: the supplement of paper PMC9694430

# thermal shift delta Tm per entry
# Test system: LOC_OS03G12390-cb001
# assay_name: thermal shift delta Tm vs DMSO control; higher = stronger stabilization (binding);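 also: purified Escherichia coli-expressed rice kinase domain construct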
# conditions: 12.5 µM; protein concentration 2 µM
Structures can show the parent of a compound that is named as a salt.
Respond numerically; units are °C and should not be typed.

Please review the following examples before continuing.
COc1cc2ncnc(Nc3ccc(F)c(Cl)c3)c2cc1NC(=O)/C=C/CN1CCCCC1: 0.21
Cc1cc(Nc2cc(N)ncn2)c(=O)n2c1C(=O)NC21CCCCC1: 0.13
CNC(=O)c1cc(Oc2ccc(NC(=O)Nc3ccc(Cl)c(C(F)(F)F)c3)cc2)ccn1 [Sorafenib Tosylate]: 1.41
COc1cc2ncc(-c3ccccc3)nc2cc1OC: 0.49

Continue with the next compound.
For the compound shown here, `NC1(Cc2ccc(Cl)cc2)CCN(c2ncnc3[nH]ccc23)CC1` , give the reported thermal shift delta Tm.
1.47

---

# thermal shift delta Tm per entry
# System: LOC_OS01G52050-cb004
# Sequence (whole entry): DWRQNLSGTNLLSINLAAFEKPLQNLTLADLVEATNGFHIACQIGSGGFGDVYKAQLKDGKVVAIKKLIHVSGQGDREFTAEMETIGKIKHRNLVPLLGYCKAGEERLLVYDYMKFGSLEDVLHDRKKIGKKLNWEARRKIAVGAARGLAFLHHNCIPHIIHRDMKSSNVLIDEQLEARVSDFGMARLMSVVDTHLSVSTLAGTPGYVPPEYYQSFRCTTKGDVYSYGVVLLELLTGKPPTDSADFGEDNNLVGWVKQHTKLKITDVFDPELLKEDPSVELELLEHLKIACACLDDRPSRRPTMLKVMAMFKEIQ
# assay_name: thermal shift delta Tm vs DMSO control; higher = stronger stabilization (binding)
# conditions: 12.5 µM; protein concentration 2 µM
Field: value (include unit after the number)

Please review the following examples before continuing.
CCN1CCN(Cc2ccc(Nc3ncc(F)c(-c4cc(F)c5nc(C)n(C(C)C)c5c4)n3)nc2)CC1: 1.08 °C
Cc1cc(Nc2ncnc3ccc(NC4=NC(C)(C)CO4)cc23)ccc1Oc1ccn2ncnc2c1: 1.03 °C
CC(C)(C)S(=O)(=O)c1ccc2nccc(Nc3n[nH]c4ccc(F)cc34)c2c1: 0.16 °C
OCCn1cc(-c2cnc3nnn(Cc4ccc5ncccc5c4)c3n2)cn1: 0.09 °C
O=C1Cc2c([nH]c3ccc(Br)cc23)-c2ccccc2N1: 5.21 °C
Cn1ncc(Cl)c1-c1cc(C(=O)N[C@H](CN)Cc2ccc(F)c(F)c2)oc1Cl: 1.06 °C
C[C@@H](Nc1cc(F)cc(F)c1)c1cc(C(=O)N(C)C)cc2c(=O)cc(N3CCOCC3)oc12: -0.12 °C
CN1CCC(Nc2nc(Nc3ccc(Oc4ccccc4)cc3)c3c(=O)[nH]cc(Br)c3n2)CC1: 4.93 °C
CC(C)c1cnn2c(NCc3ccccc3-n3cccn3)nc(OC3CCCNC3)nc12 (stereo not given): 0.43 °C

Continue with the next molecule.
For the molecule shown here, `CN1CCN(CCOc2cc(OC3CCOCC3)c3c(Nc4c(Cl)ccc5c4OCO5)ncnc3c2)CC1` , give the reported thermal shift delta Tm.
1.72 °C
